Experiment: molar heat capacity at constant pressure
Details: 343.15 K; 101.33 kPa; Liquid; Large sample (1 g) DSC
property: molar heat capacity at constant pressure (J/K/mol)

molecule: CCCC[N+](C)(CCCC)CCCC.NCCCC[C@H](N)C(=O)[O-] [N,N-dibutyl-N-methyl-1-butanaminium L-lysinate]
experimental result: 893.3
--
molecule: CCCC[P+](CCCC)(CCCC)CCCC.NCCCC[C@H](N)C(=O)[O-] [tetrabutylphosphonium L-lysinate]
experimental result: 1077.9
--
molecule: CCCC[P+](CCCC)(CCCC)CCCC.N[C@@H](CO)C(=O)[O-] [tetrabutylphosphonium L-serinate]
experimental result: 797.6
--
molecule: CCCC[N+](C)(CCCC)CCCC.C[C@@H](O)[C@H](N)C(=O)[O-] [N,N-dibutyl-N-methyl-1-butanaminium L-threoninate]
experimental result: 801
--
molecule: CCCC[P+](CCCC)(CCCC)CCCC.O=C([O-])[C@@H]1CCCN1 [tetrabutylphosphonium L-prolinate]
experimental result: 910.1
--
molecule: CCCC[P+](CCCC)(CCCC)CCCC.C[C@@H](O)[C@H](N)C(=O)[O-] [tetrabutylphosphonium L-threoninate]
experimental result: 1055.7
--
molecule: CCCC[P+](CCCC)(CCCC)CCCC.NCCS(=O)(=O)[O-] [tetrabutylphosphonium 2-aminoethanesulfonate]
experimental result: 1057.6
--
molecule: CCCC[N+](C)(CCCC)CCCC.N[C@@H](CO)C(=O)[O-] [N,N-dibutyl-N-methylbutanaminium L-serinate]
experimental result: 665
--
molecule: CCCC[P+](CCCC)(CCCC)CCCC.N[C@@H](CS)C(=O)[O-] [tetrabutylphosphonium L-cysteinate]
experimental result: 993.4
--
molecule: CC(C)[C@H](N)C(=O)[O-].CCCC[P+](CCCC)(CCCC)CCCC [tetrabutylphosphonium L-valinate]
experimental result: 791.4
--
molecule: CCCC[N+](C)(CCCC)CCCC.NCCS(=O)(=O)[O-] [N,N-dibutyl-N-methyl-1-butanaminium 2-aminoethanesulfonate]
experimental result: 872.6
